- targetOrSystem: ELP1;ELP2;ELP3 wild type (Homo sapiens;Homo sapiens;Homo sapiens, UniProt O95163;Q6IA86;Q9H9T3 1-1332;1-826;1-547, ||)
- Sequence (O95163 whole entry, chain 1 of 3): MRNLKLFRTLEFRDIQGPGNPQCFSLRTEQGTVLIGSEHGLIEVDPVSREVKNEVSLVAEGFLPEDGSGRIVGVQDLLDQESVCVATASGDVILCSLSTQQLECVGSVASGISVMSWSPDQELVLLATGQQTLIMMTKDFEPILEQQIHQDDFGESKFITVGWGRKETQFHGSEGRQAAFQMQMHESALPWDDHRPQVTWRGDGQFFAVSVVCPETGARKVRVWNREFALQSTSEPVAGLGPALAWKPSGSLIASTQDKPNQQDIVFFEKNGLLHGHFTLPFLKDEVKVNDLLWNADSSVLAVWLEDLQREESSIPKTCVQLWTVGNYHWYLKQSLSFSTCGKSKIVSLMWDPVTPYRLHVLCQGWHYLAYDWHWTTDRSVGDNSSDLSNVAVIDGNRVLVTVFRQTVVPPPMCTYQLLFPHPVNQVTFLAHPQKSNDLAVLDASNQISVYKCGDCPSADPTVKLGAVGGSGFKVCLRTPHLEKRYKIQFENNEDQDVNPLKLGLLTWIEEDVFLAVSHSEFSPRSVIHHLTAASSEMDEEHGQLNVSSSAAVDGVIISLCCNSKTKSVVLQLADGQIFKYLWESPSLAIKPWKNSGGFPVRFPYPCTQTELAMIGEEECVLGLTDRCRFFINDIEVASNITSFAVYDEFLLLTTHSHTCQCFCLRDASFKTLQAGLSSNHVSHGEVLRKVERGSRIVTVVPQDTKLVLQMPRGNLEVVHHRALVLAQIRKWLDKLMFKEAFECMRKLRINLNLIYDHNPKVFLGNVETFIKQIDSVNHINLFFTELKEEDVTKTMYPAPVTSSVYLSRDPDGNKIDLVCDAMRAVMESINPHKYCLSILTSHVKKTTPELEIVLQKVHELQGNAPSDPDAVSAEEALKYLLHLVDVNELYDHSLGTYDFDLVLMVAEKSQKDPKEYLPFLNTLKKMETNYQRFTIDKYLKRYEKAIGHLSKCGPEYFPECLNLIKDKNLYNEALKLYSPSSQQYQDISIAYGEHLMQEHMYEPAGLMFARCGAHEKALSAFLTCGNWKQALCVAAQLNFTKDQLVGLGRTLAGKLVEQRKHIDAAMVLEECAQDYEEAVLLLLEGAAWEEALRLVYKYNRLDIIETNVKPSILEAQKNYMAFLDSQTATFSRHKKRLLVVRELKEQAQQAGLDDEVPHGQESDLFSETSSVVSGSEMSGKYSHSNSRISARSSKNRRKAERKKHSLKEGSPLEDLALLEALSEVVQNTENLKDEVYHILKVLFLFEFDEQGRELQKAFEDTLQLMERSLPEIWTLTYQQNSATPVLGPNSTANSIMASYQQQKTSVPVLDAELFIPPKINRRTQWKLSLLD
- Sequence (Q6IA86 whole entry, chain 2 of 3): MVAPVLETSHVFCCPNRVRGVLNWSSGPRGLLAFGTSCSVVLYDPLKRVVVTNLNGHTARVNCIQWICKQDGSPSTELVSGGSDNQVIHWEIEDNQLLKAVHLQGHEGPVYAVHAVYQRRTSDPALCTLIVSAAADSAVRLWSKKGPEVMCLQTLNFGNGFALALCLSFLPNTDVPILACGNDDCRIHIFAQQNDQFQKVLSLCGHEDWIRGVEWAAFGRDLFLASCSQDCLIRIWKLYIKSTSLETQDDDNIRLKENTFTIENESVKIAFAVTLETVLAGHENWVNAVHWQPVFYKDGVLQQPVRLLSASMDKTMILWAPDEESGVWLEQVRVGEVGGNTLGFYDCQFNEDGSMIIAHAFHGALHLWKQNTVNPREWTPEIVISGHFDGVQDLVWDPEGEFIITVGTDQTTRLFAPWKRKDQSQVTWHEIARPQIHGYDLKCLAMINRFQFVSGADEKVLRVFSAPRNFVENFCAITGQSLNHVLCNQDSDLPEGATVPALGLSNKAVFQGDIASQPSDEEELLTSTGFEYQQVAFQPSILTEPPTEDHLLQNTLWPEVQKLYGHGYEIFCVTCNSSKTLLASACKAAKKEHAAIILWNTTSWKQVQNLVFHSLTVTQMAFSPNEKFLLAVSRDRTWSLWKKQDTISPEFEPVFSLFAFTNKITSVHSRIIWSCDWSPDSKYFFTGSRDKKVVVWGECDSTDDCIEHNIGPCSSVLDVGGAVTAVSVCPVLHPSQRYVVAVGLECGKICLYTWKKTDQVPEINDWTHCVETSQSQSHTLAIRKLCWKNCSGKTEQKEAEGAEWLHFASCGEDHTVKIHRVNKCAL
- Sequence (Q9H9T3 whole entry, chain 3 of 3): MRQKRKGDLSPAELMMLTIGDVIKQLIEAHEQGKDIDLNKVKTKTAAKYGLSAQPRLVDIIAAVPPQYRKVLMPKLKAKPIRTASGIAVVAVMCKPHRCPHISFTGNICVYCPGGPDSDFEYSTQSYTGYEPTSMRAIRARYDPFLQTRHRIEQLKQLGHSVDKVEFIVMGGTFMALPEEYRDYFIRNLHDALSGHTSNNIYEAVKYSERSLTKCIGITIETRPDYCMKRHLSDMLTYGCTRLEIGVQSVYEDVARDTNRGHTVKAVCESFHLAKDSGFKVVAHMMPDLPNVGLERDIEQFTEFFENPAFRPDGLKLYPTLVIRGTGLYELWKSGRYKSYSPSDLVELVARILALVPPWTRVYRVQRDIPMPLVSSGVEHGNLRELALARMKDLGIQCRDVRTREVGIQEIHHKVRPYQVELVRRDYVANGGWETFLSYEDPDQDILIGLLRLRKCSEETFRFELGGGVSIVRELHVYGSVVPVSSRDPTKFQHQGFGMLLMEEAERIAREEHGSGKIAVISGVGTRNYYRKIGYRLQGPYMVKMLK
- assayProcedure: MST; MST: 20 mM HEPES pH 7.5, 100 mM NaCl, 5 mM DTT, 0.05% Tween 20; incubated at 4 C 30 min, measured at 25 C; Cy5-tRNA 14 or 30 nM. Cryo-EM: 20 mM HEPES pH 7.5, 100 mM NaCl, 2 mM MgCl2, 2 mM DTT
- setupConditions: protein: recombinant;recombinant;recombinant; tags: ;;C-terminal Twin-Strep-Tag; chain copies: 2;2;2; label: internal Cy5 (5% Cy5-CTP) for MST; tRNA fold
assayEndpoint: Kd (nM)

{"binder": "tRNAGlnUUG (structured_RNA) RNA: GGCCCCAUGGUGUAAUGGUUAGCACUCUGGACUUUGAAUCCAGCGAUCCGAGUUCAAAUCUCGGUGGGACCUCCA", "units": "nM", "number": 37.6}
